# studyTarget: ALK5 kinase (Homo sapiens)
# Construct: GST; purchased Thermo Fisher Scientific Solutions
# Sequence (P36897 34-503): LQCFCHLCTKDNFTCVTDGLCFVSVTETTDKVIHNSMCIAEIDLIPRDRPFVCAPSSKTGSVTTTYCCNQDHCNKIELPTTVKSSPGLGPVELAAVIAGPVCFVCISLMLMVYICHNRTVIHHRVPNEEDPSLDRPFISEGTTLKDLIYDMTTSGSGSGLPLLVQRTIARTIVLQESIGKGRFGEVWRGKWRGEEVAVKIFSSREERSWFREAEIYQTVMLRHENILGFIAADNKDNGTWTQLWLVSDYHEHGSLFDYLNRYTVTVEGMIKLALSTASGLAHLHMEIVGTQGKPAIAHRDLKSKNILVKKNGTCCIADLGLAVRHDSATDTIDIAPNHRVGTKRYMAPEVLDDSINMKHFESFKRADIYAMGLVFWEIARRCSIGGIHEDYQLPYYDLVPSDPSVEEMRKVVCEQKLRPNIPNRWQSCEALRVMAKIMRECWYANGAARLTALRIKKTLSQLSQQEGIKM
# assayName: Activity inhibition test on ALK5 enzyme (LanthaScreen Eu binding kinase assay)
# appliedConditions: kinase tracer 178, 60 minutes at room temperature
measuredQuantity: IC50

Below: 4 compounds and their reported IC50.
{"columns": ["compound", "measuredQuantity", "reportedValue"],
 "data": [
  ["Cc1cccc(-n2nc(C(=O)Nc3cccc(CS(N)(=O)=O)c3)cc2-c2ccc3ncsc3c2)n1 [Example 60]", "IC50", "13 nM"],
  ["Cc1cccc(-n2nc(C(=O)Nc3cc(F)cc(F)c3)cc2-c2ccc3ncnn3c2)n1 [Example 137]", "IC50", "10 to 100 nM"],
  ["Cc1cccc(-n2nc(C(=O)Nc3ccc(F)cc3F)cc2-c2ccc3ncnn3c2)n1 [Example 134]", "IC50", "10 to 100 nM"],
  ["CSc1ccc(NC(=O)c2cc(-c3ccc4ncsc4c3)n(-c3cccc(C)n3)n2)cc1 [Example 36]", "IC50", "< 10 nM"]
]}

Give me IC50 for each of these compounds, listed below.
1. Cc1cccc(-n2nc(C(=O)Nc3ccc(CS(N)(=O)=O)cc3)cc2-c2ccc3ncsc3c2)n1 [Example 61]
2. Cc1cccc(-n2nc(C(=O)Nc3cccc(Cl)c3F)cc2-c2ccc3ncnn3c2)n1 [Example 138]
3. Cc1cccc(-n2nc(C(=O)Nc3cnn(S(C)(=O)=O)c3)cc2-c2ccc(F)c(-c3cnn(CCO)c3)c2)n1 [Example 224]
4. Cc1cccc(-n2nc(C(=O)Nc3ccc(NC4CCS(=O)(=O)C4)cc3)cc2-c2ccc3ncsc3c2)n1 (centres unmarked) [Example 63]

Solution:
1. 10 to 100 nM
2. 10 to 100 nM
3. 3.1 nM
4. 3.7 nM

* * *

# studyTarget: ALK5 kinase (Homo sapiens)
# Construct: GST; purchased Thermo Fisher Scientific Solutions
# assayName: Activity inhibition test on ALK5 enzyme (LanthaScreen Eu binding kinase assay)
# appliedConditions: kinase tracer 178, 60 minutes at room temperature
I'd appreciate it if you could supply log10(IC50) values for the items below.
Form field - Quantity: IC50; Unit: nM; Scale: log10

{"columns": ["entrySmiles", "studyTarget", "measuredQuantity", "reportedValue"],
 "data": [
  ["Cc1cccc(-n2nc(C(=O)Nc3cccc(NS(C)(=O)=O)c3)cc2-c2ccc3ncsc3c2)n1", "ALK5 kinase (Homo sapiens)", "log10(IC50)", 0.38],
  ["Cc1cccc(-n2nc(C(=O)Nc3ccccc3F)cc2-c2ccc3ncoc3c2)n1", "ALK5 kinase (Homo sapiens)", "log10(IC50)", 1.43]
]}

Give me log10(IC50) for each of these molecules, listed below.
1. Cc1cccc(-n2nc(C(=O)Nc3ccc4c(c3)OCO4)cc2-c2ccnc3ccccc23)n1
2. Cc1cccc(-n2nc(C(=O)Nc3ccc(CO)cc3)cc2-c2ccc3ncsc3c2)n1
3. CSc1cccc(NC(=O)c2cc(-c3ccc4ncnn4c3)n(-c3cccc(C)n3)n2)c1
4. CSc1ccc(NC(=O)c2cc(-c3ccc4ncsc4c3)n(-c3cccc(C)n3)n2)cn1

Solution:
1: 1.48; 2: 0.58; 3: 0.82; 4: 0.98

* * *

# studyTarget: ALK5 kinase (Homo sapiens)
# Construct: GST; purchased Thermo Fisher Scientific Solutions
# assayName: Activity inhibition test on ALK5 enzyme (LanthaScreen Eu binding kinase assay)
# appliedConditions: kinase tracer 178, 60 minutes at room temperature
I'd appreciate it if you could supply IC50 values for the items below.

Below: 5 molecules and their reported IC50.
{"columns": ["entrySmiles", "studyTarget", "reportedValue"],
 "data": [
  ["Cc1cccc(-n2nc(C(=O)NCc3ccccc3)cc2-c2ccc3ncsc3c2)n1", "ALK5 kinase (Homo sapiens)", "~10 nM"],
  ["Cc1cccc(-n2nc(C(=O)Nc3cccc(C#N)c3)cc2-c2ccc3ncnn3c2)n1", "ALK5 kinase (Homo sapiens)", "10 to 100 nM"],
  ["COc1cccc(NC(=O)c2cc(-c3ccc4ncnn4c3)n(-c3cccc(C)n3)n2)c1", "ALK5 kinase (Homo sapiens)", "10 to 100 nM"],
  ["Cc1cccc(-n2nc(C(=O)Nc3ccncc3)cc2-c2ccc3ncsc3c2)n1", "ALK5 kinase (Homo sapiens)", "< 10 nM"],
  ["Cc1cccc(-n2nc(C(=O)NCc3ccc(Cl)cc3)cc2-c2ccc3nccnc3c2)n1", "ALK5 kinase (Homo sapiens)", "> 100 nM"]
]}

Give me IC50 for each of these molecules, listed below.
1. Cc1cccc(-n2nc(C(=O)Nc3ccccc3Br)cc2-c2ccc3ncnn3c2)n1
2. COc1ccc(NC(=O)c2cc(-c3ccnc4ccccc34)n(-c3cccc(C)n3)n2)cn1
3. Cc1cccc(-n2nc(C(=O)Nc3ccc(S(=O)(=O)NC4CC4)cc3)cc2-c2ccc3ncsc3c2)n1

Solution:
10 to 100 nM
36 nM
6.6 nM
